- target desc: T1, SARS-CoV-2 WA-1 RBD (SARS-CoV-2, UniProt P0DTC2 331-527)
- T1 construct: source: Expi293F, purified (Ni-NTA)
- experimental details: BLI
- protocol conditions: both partners purified
readout label: Kd (nM)
Note: unit nM is implicit; provide only the numeric part.

The recorded Kd for WRAIR-5021 (antibody, V domains shown, also called CoV_5021; source: Expi293F, transfected, purified (Protein A magnetic beads)) VH: QVQLQESGPGLVKPSETLSLTCAVSGYSISSGYYWGWIRQPPGKGLEYIGYFSGTTGSTYYNPSLKSRVTISKDTSKNQFSLKLNSVTAADTAVYYCARQPPRFDVWGPGVLVTVST VL: DIQMTQSPSSLSASVGDTVTITCRASQGISNFLNWYQQKPGKAPKLLIYDASRLESGVPSRFSGSGSGTEFTLTISSLQPEDFATYHCLQYDSDPFTFGPGTKLDIKR is 1.09

The measurements presented in this section are drawn from paper PMC10764318.
